Target: His-tagged human recombinant kinase full-length Akt1 (Homo sapiens (Human), UniProt P31749)
Sequence (P31749 whole entry): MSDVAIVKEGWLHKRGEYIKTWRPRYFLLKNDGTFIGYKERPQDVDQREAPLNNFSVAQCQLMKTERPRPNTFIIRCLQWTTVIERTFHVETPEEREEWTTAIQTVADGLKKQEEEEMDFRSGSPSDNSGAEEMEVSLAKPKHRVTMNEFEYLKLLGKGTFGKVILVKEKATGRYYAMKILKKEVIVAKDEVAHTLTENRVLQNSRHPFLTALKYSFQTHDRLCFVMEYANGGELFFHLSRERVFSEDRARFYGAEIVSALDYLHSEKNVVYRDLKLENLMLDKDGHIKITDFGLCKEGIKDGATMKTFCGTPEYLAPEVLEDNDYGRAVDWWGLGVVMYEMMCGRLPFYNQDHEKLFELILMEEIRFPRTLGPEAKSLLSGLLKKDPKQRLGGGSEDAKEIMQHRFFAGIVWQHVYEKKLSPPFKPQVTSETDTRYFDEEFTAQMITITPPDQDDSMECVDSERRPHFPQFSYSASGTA
Test: Akt1 kinase assay (Akt1 TR-FRET assay, Biological Assay 1.0)
Conditions: 10 μM ATP, 1 μM biotinylated peptide substrate, 60 min at 22° C.
Description: Biological Assay 1.0: Akt1 Kinase Assay Akt1 inhibitory activity of compounds of the present invention may be quantified employing the Akt1 TR-FRET assay as described in the following paragraphs. His-tagged human recombinant kinase full-length Akt1 expressed in insect cells was purchased form Invitrogen (part number PV 3599). […]
Classify on IC50 using range A: < 10 nM; range B: ≥ 10 nM and < 60 nM; range C: ≥ 60 nM

compound: Cc1cccc(-c2nc(C3CN(Cc4ccc(-c5nc6nc(C7CC7)nn6cc5-c5ccc(F)cc5)cc4)C3)n[nH]2)n1
discrete.label: range B
--
compound: c1ccc(-c2cn3ccnc3nc2-c2ccc(CN3CCC(c4cnc5ccccc5n4)CC3)cc2)cc1 [Example 10.0]
discrete.label: range A
--
compound: CC(C)c1nc2nc(-c3ccc(CN4CCC(c5cnc6ccccc6n5)CC4)cc3)c(-c3ccccc3)cn2n1
discrete.label: range C
--
compound: Fc1ccc(-c2cn3ccnc3nc2-c2ccc(CN3CCC(c4cnc5ccccc5n4)CC3)cc2)cc1
discrete.label: range C

(Q) Which IC50 band matches COC(=O)c1cnn2cc(-c3c(F)cccc3F)c(-c3ccc(CN4CC(c5n[nH]c(-c6cccc(C)n6)n5)C4)cc3)nc12 ?
(A) range B

====

Target: His-tagged human recombinant kinase full-length Akt1 (Homo sapiens (Human))
Assay: Akt1 kinase assay (Akt1 TR-FRET assay, Biological Assay 1.0)
Type: biochemical
Settings: 10 μM ATP, 1 μM biotinylated peptide substrate, 60 min at 22° C.
property.measured: IC50 (µM)
Numbers only, in µM.

The following compounds have reported results that may help.
compound: Cc1cccc(-c2nc(C3CN(Cc4ccc(-c5nc6nc(-c7ccccn7)nn6c(NC(C)C)c5-c5ccccc5)cc4)C3)n[nH]2)n1 [Example 69.0]
IC50 / µM: 0.014

compound: Cc1cccc(-c2nc(C3CCN(Cc4ccc(-c5nc6nc(C7CC7)nn6cc5-c5ccc(F)cc5)cc4)CC3)n[nH]2)n1 [Example 51.0]
IC50 / µM: 0.041

compound: Cc1cccc(-c2nc(C3CCN(Cc4ccc(-c5nc6nc(C)nn6cc5-c5cccc(F)c5)cc4)CC3)n[nH]2)n1 [Example 49.0]
IC50 / µM: 0.013

Below: the item to evaluate.
(Q) Reported IC50 for Clc1cnc2nc(-c3ccc(CN4CC(c5nnc(-c6ccccn6)[nH]5)C4)cc3)c(-c3ccccc3)cn12 [Example 5.0] : what is it?
(A) 0.006

====

Molecular target: His-tagged human recombinant kinase full-length Akt1 (Homo sapiens (Human))
Assay: Akt1 kinase assay (Akt1 TR-FRET assay, Biological Assay 1.0)
Conditions: 10 μM ATP, 1 μM biotinylated peptide substrate, 60 min at 22° C.
Provide the reported pIC50 of each item.
Give bare numbers, as −log10 of the molar value.

Parameters: items (list). Returns: pIC50 for each item.
1. Fc1ccc(-c2cn3ccnc3nc2-c2ccc(CN3CC(c4n[nH]c(-c5ccccn5)n4)C3)cc2)cc1
2. COC(=O)c1cn2cc(-c3ccccc3)c(-c3ccc(CN4CC(c5n[nH]c(-c6ccccn6)n5)C4)cc3)nc2n1

(A)
[7.59, 8.00]

Batch request: pIC50 for each of the following compounds.
1. CNc1c(-c2ccccc2)c(-c2ccc(CN3CC(c4n[nH]c(-c5ccccn5)n4)C3)cc2)nc2nccn12
2. Cc1nc2nc(-c3ccc(CN4CCC(c5nc6ccc(C#N)cc6[nH]5)CC4)cc3)c(-c3ccccc3)cn2n1
3. CCc1cnn2cc(-c3ccccc3)c(-c3ccc(CN4CC(c5n[nH]c(-c6cccc(C)n6)n5)C4)cc3)nc12
4. c1ccc(-c2cn3ccnc3nc2-c2ccc(CN3CCC(c4nc5ccncc5[nH]4)CC3)cc2)cc1
5. CSc1nc2nc(-c3ccc(CN4CCC(c5n[nH]c(-c6cnccn6)n5)CC4)cc3)c(-c3ccccc3)cn2n1

(A)
1: 7.52; 2: 6.28; 3: 8.30; 4: 6.80; 5: 7.59
